# target.system: Human PPAR-α (Homo sapiens, UniProt Q07869)
# protocol.notes: transactivation assay (GAL4 chimeric receptor, luciferase) in CV-1 cells
# reported.conditions: CV-1 cells, GAL4 chimeric receptor, 24 hours
pEC50: −log10 of the molar value.
observation.type: pEC50

Look over these answered cases.
CCO[C@@H](Cc1ccc(OCc2sc(-c3ccc(-c4cc(C)no4)cc3)nc2C)cc1)C(=O)O [Example 47]: 5.85
CCO[C@@H](Cc1ccc(OCc2sc(-c3ccc(-c4nnn(C)n4)cc3)cc2C)cc1)C(=O)O [Example 29]: 5.91
CCO[C@@H](Cc1ccc(OCc2sc(-c3ccc(-c4csnn4)cc3)cc2C)cc1)C(=O)O [Example 24]: 5.85

I. CCO[C@@H](Cc1ccc(OCc2sc(-c3ccc(-c4nnn(COC)n4)cc3)cc2C)cc1)C(=O)O [Example 32]
II. CCO[C@@H](Cc1ccc(OCc2sc(-c3ccc(-c4nc(C)c(C)o4)cc3)cc2C)cc1)C(=O)O [Example 34]
III. CCO[C@@H](Cc1ccc(OCc2sc(-c3ccc(-c4cc(C(C)(C)C)on4)cc3)cc2C)cc1)C(=O)O [Example 48]
Lookup: Rank order required: pEC50, descending. As an answer, provide the labels arranged in the order called for.
Found: II, I, III
(II: 6.32, I: 6.00, III: 5.55)

====

# target.system: Human PPAR-α (Homo sapiens)
# Construct: expressed in transfected cells; host or cells: CV-1 (CCL-70, ATCC)
# Sequence (Q07869 239-466 limits assumed): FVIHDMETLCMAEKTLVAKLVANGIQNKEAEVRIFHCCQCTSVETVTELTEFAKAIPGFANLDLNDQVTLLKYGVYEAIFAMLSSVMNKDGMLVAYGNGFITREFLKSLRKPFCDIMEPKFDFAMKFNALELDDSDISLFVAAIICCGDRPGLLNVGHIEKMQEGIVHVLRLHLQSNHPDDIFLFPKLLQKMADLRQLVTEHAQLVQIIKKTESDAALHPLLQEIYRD
# protocol.notes: transactivation assay (GAL4 chimeric receptor, luciferase) in CV-1 cells
# Format: cell-based
# reported.conditions: CV-1; Relative Response % to maximum effects of the positive control drug; read-out: Max % Human PPAR-α
observation.type: Emax (%)

CCO[C@@H](Cc1ccc(OCc2sc(-c3ccc(C4=Nc5ccccc5OC4)cc3)cc2C)cc1)C(=O)O: 44

a. CCO[C@@H](Cc1ccc(OCc2sc(-c3ccc(-c4cc(C)no4)cc3)cc2C)cc1)C(=O)O
b. CCO[C@@H](Cc1ccc(OCc2sc(-c3ccc(-c4nnn(C)n4)cc3)cc2C)cc1)C(=O)O
Lookup: For the pair a and b , which entry has the numerically smaller recorded Emax? // respond with label for picked entry
Found: a
(a: 23%, b: 52%)

a. CCO[C@@H](Cc1ccc(OCc2sc(-c3ccc(-c4nnn(C(C)C)n4)cc3)cc2C)cc1)C(=O)O
b. CCO[C@@H](Cc1ccc(OCc2sc(-c3ccc(-c4nc(C)c(C)o4)cc3)cc2C)cc1)C(=O)O
Lookup: For the pair a and b , which entry has the numerically smaller recorded Emax? // respond with label for picked entry
Found: a

====

# target.system: Mouse PPAR-γ (Mus musculus)
# Construct: expressed in transfected cells; host or cells: CV-1 (CCL-70, ATCC)
# Sequence (P37238 238-503 limits assumed): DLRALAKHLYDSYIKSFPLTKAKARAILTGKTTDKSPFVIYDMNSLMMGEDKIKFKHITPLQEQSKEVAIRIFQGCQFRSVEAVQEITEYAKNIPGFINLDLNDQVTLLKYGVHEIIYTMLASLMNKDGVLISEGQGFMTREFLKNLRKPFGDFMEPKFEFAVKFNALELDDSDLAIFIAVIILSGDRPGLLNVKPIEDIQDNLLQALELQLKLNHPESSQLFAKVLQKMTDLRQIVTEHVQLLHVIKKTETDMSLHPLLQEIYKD
# protocol.notes: transactivation assay (GAL4 chimeric receptor, luciferase) in CV-1 cells
# Type: cell-based
# reported.conditions: CV-1; Relative Response % to maximum effects of the positive control drug; read-out: Max % Mouse PPAR-γ
observation.type: Emax (%)

Look over these answered cases.
CCO[C@@H](Cc1ccc(OCc2sc(-c3ccc(C4=Nc5ccccc5OC4)cc3)cc2C)cc1)C(=O)O [Example 23]: 67
CCO[C@@H](Cc1ccc(OCc2sc(-c3ccc(-c4cc(COC)on4)cc3)cc2C)cc1)C(=O)O [Example 36]: 48
CCO[C@@H](Cc1ccc(OCc2sc(-c3ccc(-c4cc(COC)no4)cc3)cc2C)cc1)C(=O)O [Example 40]: 30
CCO[C@@H](Cc1ccc(OCc2sc(-c3ccc(-c4cc(C(C)(C)C)on4)cc3)cc2C)cc1)C(=O)O [Example 48]: 24
CCO[C@@H](Cc1ccc(OCc2sc(-c3ccc(-c4nnn(COC)n4)cc3)cc2C)cc1)C(=O)O [Example 32]: 31

1. CCO[C@@H](Cc1ccc(OCc2sc(-c3ccc(-c4nnn(C(C)C)n4)cc3)cc2C)cc1)C(=O)O [Example 31]
2. CCO[C@@H](Cc1ccc(OCc2sc(-c3ccc(-c4csnn4)cc3)cc2C)cc1)C(=O)O [Example 24]
3. CCO[C@@H](Cc1ccc(OCc2sc(-c3ccc(C(=O)N4CCOCC4)cc3)cc2C)cc1)C(=O)O [Example 17]
4. CCO[C@@H](Cc1ccc(OCc2sc(-c3ccc(-c4cc(C)no4)cc3)nc2C)cc1)C(=O)O [Example 47]
Lookup: Rank order required: Emax, descending. As an answer, provide the labels arranged in the order called for.
Found: 3, 4, 2, 1

====

# target.system: Mouse PPAR-α (Mus musculus, UniProt P23204)
# Construct: expressed in transfected cells; host or cells: CV-1 (CCL-70, ATCC)
# Sequence (P23204 239-466 limits assumed): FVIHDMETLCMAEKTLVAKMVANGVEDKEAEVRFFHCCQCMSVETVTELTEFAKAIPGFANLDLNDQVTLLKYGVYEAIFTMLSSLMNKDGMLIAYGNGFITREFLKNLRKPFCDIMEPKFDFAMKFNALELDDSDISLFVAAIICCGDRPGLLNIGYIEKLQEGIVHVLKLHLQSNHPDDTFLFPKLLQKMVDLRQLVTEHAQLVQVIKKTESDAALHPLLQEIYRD
# protocol.notes: transactivation assay (GAL4 chimeric receptor, luciferase) in CV-1 cells
# Format: cell-based
# reported.conditions: CV-1 cells, GAL4 chimeric receptor, 24 hours
pEC50: −log10 of the molar value.
observation.type: pEC50

Look over these answered cases.
CCO[C@@H](Cc1ccc(OCc2sc(-c3ccc(-c4cc(C(=O)NC)no4)cc3)cc2C)cc1)C(=O)O: 5.24
CCO[C@@H](Cc1ccc(OCc2sc(-c3ccc(C4=NCCCO4)cc3)cc2C)cc1)C(=O)O: 5.17
CCO[C@@H](Cc1ccc(OCc2sc(-c3ccc(-c4nnn(C(C)C)n4)cc3)cc2C)cc1)C(=O)O: 5.51

1. CCO[C@@H](Cc1ccc(OCc2sc(-c3ccc(C4=Nc5ccccc5OC4)cc3)cc2C)cc1)C(=O)O
2. CCO[C@@H](Cc1ccc(OCc2sc(-c3ccc(-c4cc(C)no4)cc3)nc2C)cc1)C(=O)O
Lookup: Sort 1 and 2 by pEC50 descending and give the first. // respond with label for picked entry
Found: 1

====

# target.system: Mouse PPAR-α (Mus musculus, UniProt P23204)
# Construct: expressed in transfected cells; host or cells: CV-1 (CCL-70, ATCC)
# protocol.notes: transactivation assay (GAL4 chimeric receptor, luciferase) in CV-1 cells
# Assay type: cell-based
# reported.conditions: CV-1; Relative Response % to maximum effects of the positive control drug; read-out: Max % Mouse PPAR-α
observation.type: Emax (%)

CCO[C@@H](Cc1ccc(OCc2sc(-c3ccc(-c4cc(C(=O)NC)no4)cc3)cc2C)cc1)C(=O)O: 49
CCO[C@@H](Cc1ccc(OCc2sc(-c3ccc(-c4csc(C)n4)cc3)cc2C)cc1)C(=O)O: 4
CCO[C@@H](Cc1ccc(OCc2sc(-c3ccc(-c4cc(C)no4)cc3)cc2C)cc1)C(=O)O: 19
CCO[C@@H](Cc1ccc(OCc2sc(-c3ccc(-c4csnn4)cc3)cc2C)cc1)C(=O)O: 23
CCO[C@@H](Cc1ccc(OCc2sc(-c3ccc(-c4cc(C)no4)cc3)nc2C)cc1)C(=O)O: 71

I. CCO[C@@H](Cc1ccc(OCc2sc(-c3ccc(-c4cc(COC)on4)cc3)cc2C)cc1)C(=O)O
II. CCO[C@@H](Cc1ccc(OCc2sc(-c3ccc(-c4cc(COC)no4)cc3)cc2C)cc1)C(=O)O
III. CCO[C@@H](Cc1ccc(OCc2sc(-c3ccc(-c4nnn(C(C)C)n4)cc3)cc2C)cc1)C(=O)O
Lookup: Rank order required: Emax, descending. As an answer, provide the labels arranged in the order called for.
Found: I, III, II
(I: 21%, III: 10%, II: 5%)

====

# target.system: Human PPAR-α (Homo sapiens)
# Construct: expressed in transfected cells; host or cells: CV-1 (CCL-70, ATCC)
# Sequence (Q07869 239-466 limits assumed): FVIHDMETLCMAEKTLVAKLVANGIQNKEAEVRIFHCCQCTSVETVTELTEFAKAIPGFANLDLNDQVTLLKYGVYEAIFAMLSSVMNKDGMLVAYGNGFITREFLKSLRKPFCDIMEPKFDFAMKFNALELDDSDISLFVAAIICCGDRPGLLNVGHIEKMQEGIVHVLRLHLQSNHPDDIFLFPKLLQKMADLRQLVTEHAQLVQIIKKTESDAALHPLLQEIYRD
# protocol.notes: transactivation assay (GAL4 chimeric receptor, luciferase) in CV-1 cells
# Format: cell-based
# reported.conditions: CV-1; Relative Response % to maximum effects of the positive control drug; read-out: Max % Human PPAR-α
observation.type: Emax (%)

CCO[C@@H](Cc1ccc(OCc2sc(-c3ccc(-c4cc(C)no4)cc3)nc2C)cc1)C(=O)O [Example 47]: 60

I. CCO[C@@H](Cc1ccc(OCc2sc(-c3ccc(C4=NCCCO4)cc3)cc2C)cc1)C(=O)O [Example 19]
II. CCO[C@@H](Cc1ccc(OCc2sc(-c3ccc(-c4noc(C)n4)cc3)cc2C)cc1)C(=O)O [Example 25]
III. CCO[C@@H](Cc1ccc(OCc2sc(-c3ccc(C(=O)N4CCOCC4)cc3)cc2C)cc1)C(=O)O [Example 17]
Lookup: Task for the reader: rank each entry by its Emax, from the minimum upward. As an answer, provide the labels arranged in the order called for.
Found: III, I, II
(III: 12%, I: 44%, II: 63%)
